meta.source: a melting point compilation (Tetko et al.; mined from patent text by program, amines drawn as free bases though some values may be those of a salt)

quantityMeasured: melting point

1) Cc1nc(-c2ccc(C(=O)N3CCN(S(=O)(=O)c4ccc5cc(Br)ccc5c4)CC3)cc2)c[nH]1 = 215 to 216 °C
2) CCN(CC)Cc1ccccc1Oc1ccc(-c2cn(C3CCOC3)c3ncnc(N)c23)cc1 (centres undefined) = 107 to 110 °C
3) COc1cc(F)c(-c2cncc(OC3SCC(OC(C)=O)C(OC(C)=O)C3OC(C)=O)c2)c(F)c1 (centres undefined) = 62 °C
4) COc1cc(CCCCN(C)Cc2ccc(OC)c(OC)c2)ccc1NC(=O)c1cccc2c(=O)c3cccc(OC)c3[nH]c12 = 114 to 115 °C
